- assayProcedure: Inhibition of TNF alpha production in LPS induced human PBMC cells preincubated with compound for 1 hr followed by LPS induction and measured after 16 hrs by MSD analysis
- Assay type: functional, cell-based
pIC50: −log10 of the molar value.

structureString: Cc1ccc(-c2ccc3c(ccc4sc5c(c43)NC[C@@H](C)NC5=O)n2)cn1
pIC50: 6.80

###

- assayProcedure: Inhibition of IL-6 production in LPS induced human PBMC cells preincubated with compound for 1 hr followed by LPS induction and measured after 16 hrs by MSD analysis
- Assay type: functional, cell-based
pIC50: −log10 of the molar value.

structureString: Cc1ccc(-c2ccc3c(ccc4sc5c(c43)NC[C@@H](C)NC5=O)n2)cn1
pIC50: 5.90
